# Lookup of reported MIC keyed by entry
system: Staphylococcus aureus SA-1 (UC-76)

>  <molecule>
C[C@H]1CN2c3c(cc(-c4cnccn4)c(OCCF)c3F)CC3(C(=O)NC(=O)NC3=O)[C@@H]2[C@@H](C)O1 (relative stereo)

>  <test.system>
Staphylococcus aureus SA-1 (UC-76)

>  <MIC>
> 64 µg/mL

$$$$
>  <molecule>
C[C@H]1CN2c3c(cc(-c4cnccn4)c(N4CCOCC4)c3F)CC3(C(=O)NC(=O)NC3=O)[C@@H]2[C@@H](C)O1 (relative stereo)

>  <test.system>
Staphylococcus aureus SA-1 (UC-76)

>  <MIC>
> 64 µg/mL

$$$$
>  <molecule>
COCCOc1c(-c2cnccn2)cc2c(c1F)N1C[C@H](C)O[C@H](C)[C@H]1C1(C2)C(=O)NC(=O)NC1=O (relative stereo)

>  <test.system>
Staphylococcus aureus SA-1 (UC-76)

>  <MIC>
> 64 µg/mL

$$$$

Data origin: patent US7557100B2
